biological target: BTK (Homo sapiens, UniProt Q06187); construct: purchased Reaction Biology Corporation; assay: BTK kinase assay (HotSpot, 33P ATP); format: biochemical; conditions: 1 μM compound, 10 μM ATP
Sequence (Q06187 whole entry): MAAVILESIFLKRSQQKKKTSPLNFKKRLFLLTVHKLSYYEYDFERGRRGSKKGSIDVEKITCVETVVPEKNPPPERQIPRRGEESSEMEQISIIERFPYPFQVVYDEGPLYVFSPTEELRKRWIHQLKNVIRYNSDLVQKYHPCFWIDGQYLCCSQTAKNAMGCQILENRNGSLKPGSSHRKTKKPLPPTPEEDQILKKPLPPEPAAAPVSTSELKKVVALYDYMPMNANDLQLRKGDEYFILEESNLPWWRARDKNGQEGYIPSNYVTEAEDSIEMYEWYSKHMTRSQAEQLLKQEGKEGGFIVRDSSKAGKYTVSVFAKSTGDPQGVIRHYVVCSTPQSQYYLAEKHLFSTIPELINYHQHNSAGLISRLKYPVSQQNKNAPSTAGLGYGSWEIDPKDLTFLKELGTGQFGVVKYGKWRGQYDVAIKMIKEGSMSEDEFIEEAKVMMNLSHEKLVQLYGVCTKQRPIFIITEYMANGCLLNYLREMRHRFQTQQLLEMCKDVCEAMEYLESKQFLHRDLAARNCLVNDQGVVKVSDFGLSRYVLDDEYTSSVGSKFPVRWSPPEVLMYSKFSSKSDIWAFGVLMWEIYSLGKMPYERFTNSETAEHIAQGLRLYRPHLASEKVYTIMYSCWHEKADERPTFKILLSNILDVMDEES

- molecule: "COc1cc(-c2nn(C3Cc4ccccc4C3)c3ncnc(N)c23)ccc1C"
  BTK @ 1 μM (% Inh): 96.31
- molecule: "COc1ccc(-c2nn(C3Cc4ccccc4C3)c3ncnc(N)c23)cc1N"
  BTK @ 1 μM (% Inh): 95.31
- molecule: "Nc1ncnc2c1c(-c1cc(O)cc(F)c1)nn2C1Cc2cc(F)ccc2C1=O (stereo not shown)"
  BTK @ 1 μM (% Inh): 82.76
- molecule: "Nc1ncnc2c1c(-c1cc(O)cc(Cl)c1)nn2C1Cc2ccccc2C1"
  BTK @ 1 μM (% Inh): 87.64
- molecule: "Nc1ncnc2c1c(-c1ccc(Br)c(O)c1)nn2C1CCc2ccccc21 (stereo not shown) [36b]"
  BTK @ 1 μM (% Inh): 76.93
- molecule: "Nc1ncnc2c1c(-c1ccc(Br)c(O)c1)nn2C1CCc2ccccc21 (single isomer, unassigned) [36a]"
  BTK @ 1 μM (% Inh): 72.83
- molecule: "COc1cc(F)cc(-c2nn(C3Cc4ccccc4C3)c3ncnc(N)c23)c1"
  BTK @ 1 μM (% Inh): 76.16

----------
target: BMX/ETK (Homo sapiens); construct: purchased Reaction Biology Corporation; assay: BMX/ETK kinase profiling (BTK protocol); format: biochemical; details: 0.3 μM compound
Sequence (P51813 whole entry): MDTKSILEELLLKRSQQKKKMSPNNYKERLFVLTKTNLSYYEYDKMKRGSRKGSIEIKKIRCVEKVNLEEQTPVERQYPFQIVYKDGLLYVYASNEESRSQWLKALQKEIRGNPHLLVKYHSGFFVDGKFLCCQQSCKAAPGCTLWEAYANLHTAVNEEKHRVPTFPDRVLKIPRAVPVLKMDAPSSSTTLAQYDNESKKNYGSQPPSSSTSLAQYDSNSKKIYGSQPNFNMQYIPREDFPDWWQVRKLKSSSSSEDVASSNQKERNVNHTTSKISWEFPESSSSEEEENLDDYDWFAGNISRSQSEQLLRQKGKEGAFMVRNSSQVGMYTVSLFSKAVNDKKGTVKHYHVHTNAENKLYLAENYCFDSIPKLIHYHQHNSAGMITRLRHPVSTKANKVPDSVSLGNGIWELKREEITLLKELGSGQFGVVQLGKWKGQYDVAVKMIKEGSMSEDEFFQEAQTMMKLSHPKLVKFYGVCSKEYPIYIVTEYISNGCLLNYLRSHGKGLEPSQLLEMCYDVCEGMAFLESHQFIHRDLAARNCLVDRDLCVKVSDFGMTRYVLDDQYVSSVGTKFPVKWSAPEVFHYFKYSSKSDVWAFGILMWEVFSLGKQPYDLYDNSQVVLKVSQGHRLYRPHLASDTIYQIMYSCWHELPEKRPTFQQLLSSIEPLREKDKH
measurement_label: BMX/ETK @ 0.3 μM (% Inh)

- compound: "Nc1ncnc2c1c(-c1cc(F)c3c(c1)NCCO3)nn2C1Cc2ccccc2C1"
  measurement_label: "BMX/ETK @ 0.3 μM (% Inh)"
  value_observed: "62.51 % Inh"
- compound: "COc1ccc(-c2nn(C3Cc4ccccc4C3)c3ncnc(N)c23)cc1O"
  measurement_label: "BMX/ETK @ 0.3 μM (% Inh)"
  value_observed: "78.92 % Inh"
- compound: "Nc1ncnc2c1c(-c1cc(O)c(F)c(C(F)(F)F)c1)nn2C1Cc2ccccc2C1"
  measurement_label: "BMX/ETK @ 0.3 μM (% Inh)"
  value_observed: "4.6 % Inh"
- compound: "Nc1ncnc2c1c(-c1cc(O)c(F)c(Cl)c1)cn2C1Cc2ccccc2C1"
  measurement_label: "BMX/ETK @ 0.3 μM (% Inh)"
  value_observed: "92.59 % Inh"
- compound: "Nc1ncnc2c1c(-c1cc(O)cc(F)c1)nn2C1Cc2ccc(F)cc2C1 (centres unmarked)"
  measurement_label: "BMX/ETK @ 0.3 μM (% Inh)"
  value_observed: "74.27 % Inh"
- compound: "Nc1ncnc2c1c(-c1ccc(Cl)c(O)c1F)nn2C1Cc2ccccc2C1"
  measurement_label: "BMX/ETK @ 0.3 μM (% Inh)"
  value_observed: "107.37 % Inh"
- compound: "Nc1ncnc2c1c(-c1ccc(F)c(O)c1)nn2C1CCc2ccccc2C1 (racemic)"
  measurement_label: "BMX/ETK @ 0.3 μM (% Inh)"
  value_observed: "92.36 % Inh"
- compound: "Nc1ncnc2c1c(-c1cc(O)c(F)c(F)c1)cn2C1Cc2ccccc2C1"
  measurement_label: "BMX/ETK @ 0.3 μM (% Inh)"
  value_observed: "97.14 % Inh"
- compound: "C=CC(=O)N1CC(n2nc(-c3cc(O)cc(F)c3)c3c(N)ncnc32)Cc2cc(C)ccc21 (centres unmarked) [compound 31]"
  measurement_label: "BMX/ETK @ 0.3 μM (% Inh)"
  value_observed: "89.72 % Inh"
- compound: "N#Cc1cc(-c2cn(C3Cc4ccccc4C3)c3ncnc(N)c23)cc(O)c1F"
  measurement_label: "BMX/ETK @ 0.3 μM (% Inh)"
  value_observed: "72.12 % Inh"
- compound: "C=CC(=O)N1CC(n2nc(-c3cc(O)cc(F)c3)c3c(N)ncnc32)Cc2cc(C)ccc21 (single isomer, unassigned) [31b]"
  measurement_label: "BMX/ETK @ 0.3 μM (% Inh)"
  value_observed: "88.04 % Inh"
- compound: "Nc1ncnc2c1c(-c1ccc3cc[nH]c3c1)nn2C1CCc2ccccc2C1 (racemic)"
  measurement_label: "BMX/ETK @ 0.3 μM (% Inh)"
  value_observed: "73.26 % Inh"
- compound: "Nc1ncnc2c1c(-c1cc(O)c(Cl)c(Cl)c1)cn2C1Cc2ccccc2C1"
  measurement_label: "BMX/ETK @ 0.3 μM (% Inh)"
  value_observed: "90.55 % Inh"
- compound: "Nc1ncnc2c1c(-c1ccc(Cl)c(O)c1)nn2C1Cc2ccccc2C1"
  measurement_label: "BMX/ETK @ 0.3 μM (% Inh)"
  value_observed: "86.63 % Inh"
